The reported measurements were obtained from paper PMC3295836.

assay: in vivo; details: NZW, rabbit, sc, 10 mg/kg
parameter: Cmax (ng/mL)

compound	parameter	unit-abbreviation	reported-value
CCC(NCCCC[C@@H](C[C@@H](OC)c1ccc(F)cc1)C(=O)NO)c1ccc(F)cc1 (stereo partly shown) [LFI 20]	Cmax	ng/mL	561
